Published IC50 for Xanthine dehydrogenase/oxidase (Bos taurus, UniProt P80457), assembled from different documents, is shown next.
REPORTED_ENDPOINT: IC50 (µM)

{"columns": ["COMPOUND", "TEST_SYSTEM", "REPORTED_ENDPOINT", "ENDPOINT_VALUE"],
 "data": [
  ["Cc1ccc(Cn2c(-c3ccc(C)cc3)nc3ccccc32)cc1", "Xanthine dehydrogenase/oxidase (Bos taurus, UniProt P80457)", "IC50", 7.5],
  ["COc1cc(/C=C/C(=O)O)ccc1O", "Xanthine dehydrogenase/oxidase (Bos taurus, UniProt P80457)", "IC50", 8.2]
]}

(P) Cc1nc(NCc2ccccc2Cl)sc1C(=O)O
(Q) COc1ccc(C2Nc3ccccc3-c3cc(-c4ccccc4)nn32)cc1OC (stereo unspecified)
(R) Cc1ccccc1CNc1nc(C)c(C(=O)O)s1
Rank descending by IC50. Write the labels in rank order as requested. Q, P, R

###

pIC50: −log10 of the molar value.
Published pIC50 for Xanthine dehydrogenase/oxidase (Bos taurus, UniProt P80457), assembled from different documents, is shown next.
REPORTED_ENDPOINT: pIC50

Sample records with pIC50:
{"columns": ["COMPOUND", "TEST_SYSTEM", "pIC50"],
 "data": [
  ["Cc1nc(NCc2ccccc2)sc1C(=O)O", "Xanthine dehydrogenase/oxidase (Bos taurus, UniProt P80457)", 4.01],
  ["Cc1nc(NCc2ccc(Br)cc2)sc1C(=O)O", "Xanthine dehydrogenase/oxidase (Bos taurus, UniProt P80457)", 4.36],
  ["Oc1c(Cl)cc(Cl)cc1C1Nc2ccccc2-c2cc(-c3ccccc3)nn21 (configuration not stated)", "Xanthine dehydrogenase/oxidase (Bos taurus, UniProt P80457)", 4.96],
  ["Oc1cccc(Cn2c(-c3cccc(O)c3)nc3ccccc32)c1", "Xanthine dehydrogenase/oxidase (Bos taurus, UniProt P80457)", 5.24],
  ["Cc1nc(NCc2ccc(F)cc2)sc1C(=O)O", "Xanthine dehydrogenase/oxidase (Bos taurus, UniProt P80457)", 4.52],
  ["Oc1ccc2ccccc2c1-c1nc2ccccc2n1Cc1ccc2ccccc2c1O", "Xanthine dehydrogenase/oxidase (Bos taurus, UniProt P80457)", 5.28],
  ["c1ccc(Cn2c(-c3ccccc3)nc3ccccc32)cc1", "Xanthine dehydrogenase/oxidase (Bos taurus, UniProt P80457)", 5.01],
  ["COc1cccc(Cn2c(-c3cccc(OC)c3)nc3ccccc32)c1", "Xanthine dehydrogenase/oxidase (Bos taurus, UniProt P80457)", 5.29]
]}

(I) COc1ccccc1CNc1nc(C)c(C(=O)O)s1
(II) O=c1cc(O)cc2oc(-c3ccc(O)cc3)c(OC3OC(CO)C(O)C(O)C3O)cc1-2 (configuration not stated)
Pick one: I or II . Which one has the lower reported pIC50? Identify your selection by its label. I
